Reference source for all entries: patent US11197859B2

# ASSAY SYSTEM: human Kv3.2 channels (hKv3.2) (Homo sapiens, UniProt Q96PR1)
# Construct: expressed in transfected cells
# Sequence (Q96PR1 whole entry): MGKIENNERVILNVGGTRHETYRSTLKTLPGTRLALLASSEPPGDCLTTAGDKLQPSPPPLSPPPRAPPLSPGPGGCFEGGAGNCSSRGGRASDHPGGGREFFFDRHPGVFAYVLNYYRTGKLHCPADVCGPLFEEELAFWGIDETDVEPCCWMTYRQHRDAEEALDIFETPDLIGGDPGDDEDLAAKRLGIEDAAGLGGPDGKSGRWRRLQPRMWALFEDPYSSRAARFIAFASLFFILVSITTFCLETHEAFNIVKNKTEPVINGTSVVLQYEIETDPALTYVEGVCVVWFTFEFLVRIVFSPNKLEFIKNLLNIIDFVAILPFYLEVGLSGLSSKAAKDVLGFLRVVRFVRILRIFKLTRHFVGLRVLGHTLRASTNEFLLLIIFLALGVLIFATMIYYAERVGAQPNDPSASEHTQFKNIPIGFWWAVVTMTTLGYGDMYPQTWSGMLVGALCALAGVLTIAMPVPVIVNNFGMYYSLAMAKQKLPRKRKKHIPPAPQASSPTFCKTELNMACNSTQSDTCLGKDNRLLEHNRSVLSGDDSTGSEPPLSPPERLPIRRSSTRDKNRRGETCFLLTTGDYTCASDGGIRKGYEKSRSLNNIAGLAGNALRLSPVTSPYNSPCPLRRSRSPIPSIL
# ASSAY OVERVIEW: IonWorks Quattro electrophysiology, hKv3.2 currents, activation time constant (Tauact)
# Format: cell-based
# SETTINGS: hKv3.2, -15 mV pulse; compound 3.1 μM (concentration giving ~0.3 nA current)
ATTRIBUTE MEASURED: Tauact mean

Look over these answered cases.
CC[C@H]1NC(=O)N(c2ccc(Oc3ccc(C#N)c(OC(C)C)c3)nc2)C1=O [RE8] = 9.7 ms
CC[C@H]1NC(=O)N(c2ccc(Oc3ccc(C#N)cc3C3CC3)nc2)C1=O [RE5] = 13.0 ms
CC[C@H]1NC(=O)N(c2ccc(Oc3ccc(C#N)c(OC(F)(F)F)c3)nc2)C1=O [RE7] = 10.4 ms

Q: Please report Tauact mean for the following molecule: CCc1cc(Oc2ccc(N3C(=O)N[C@H](CC)C3=O)cn2)ccc1C#N
A: 8.2 ms

###

# ASSAY OVERVIEW: Blood concentrations in satellite animals of the electroshock seizure study
# Assay type: in vivo
# SETTINGS: CD, whole blood, po; rat, 60 mg/kg p.o., 2 hours after dosing; read-out: blood concentration
ATTRIBUTE MEASURED: concentration at 2 h (ng/mL)
Output spec: scalar in ng/mL, unitless text.

Q: Give the value of concentration at 2 h reported for the following: CC[C@H]1NC(=O)N(c2ccc(Oc3ccc(C)c(OC)c3)nc2)C1=O
A: 9100
